Reported one-hybrid fitness for binding NBS DNA is given for each of the following variants.
B1: Caulobacter ParB omega fusion; a variant is named by its letters at X, in order, B8GW30 (parent)
chain: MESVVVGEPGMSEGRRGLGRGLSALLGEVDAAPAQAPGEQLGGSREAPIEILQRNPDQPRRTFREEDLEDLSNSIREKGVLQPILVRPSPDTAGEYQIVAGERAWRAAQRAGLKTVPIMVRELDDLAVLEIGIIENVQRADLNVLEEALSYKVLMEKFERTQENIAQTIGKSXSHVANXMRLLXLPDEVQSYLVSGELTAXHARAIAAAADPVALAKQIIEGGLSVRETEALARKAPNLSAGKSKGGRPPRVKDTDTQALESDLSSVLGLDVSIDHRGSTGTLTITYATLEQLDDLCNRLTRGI

variants of: B1; assay: one-hybrid fitness for binding NBS DNA (the Noc-binding site; scaled: cognate 1, non-cognate 0); higher = stronger binding; details: with NBS DNA site
Over roughly 81,000 sequences, “one-hybrid fitness for binding NBS DNA” has its median near -0.1; the highest 2% begin near 0.36. The list comes from a sample in which the highest values are over-represented; it also holds close analogues and randomly drawn sequences.

Some solved entries appear below for comparison.
CHHT | ≤ 0.2
RIYS | 0.413
RRWN | 0.222
QLNA | 0.219
QKNA | 0.378
RAMV | ≤ 0.2
RRMM | 0.221
AHFR | ≤ 0.2

Now examine the next entry.
Query :: one-hybrid fitness for binding NBS DNA lookup needed for NNAW , thanks.
Result :: ≤ 0.2
